Recorded pIC50 values (full-length MALT1 protein (Strep-MALT1(1-824)-His) (Homo sapiens (Human))) are given below.
# reply with the number alone; pIC50 is -log10 of concentration in mol/L

Example entries and their recorded answers appear below.
compound: CNC(=O)c1ncc(NC(=O)c2cnn(-c3cccc4c(=O)[nH]ccc34)c2C(F)(F)F)cc1Cl [Cpd 352]
pIC50: 7.36
--
compound: NC(=O)c1cnn(-c2ccc(NC(=O)c3cnn(-c4cccc5ncccc45)c3C(F)(F)F)cc2Cl)n1 [Cpd 244]
pIC50: 6.40
--
compound: N#Cc1cc(NC(=O)c2cnn(-c3cccc4ncccc34)c2C(F)(F)F)cnc1OC1CC1 [Cpd 88]
pIC50: 6.97

# input compound: COCc1cnn(-c2ncc(NC(=O)c3cnn(-c4cccc5ncccc45)c3C(F)(F)F)cc2Cl)n1 [Cpd 173] ; wanted: its pIC50
7.23

State the recorded pIC50 for this entry: O=C(Nc1cnc(-n2nccn2)c(Cl)c1)c1cnn(-c2cccc3nc(C4CCCO4)ccc23)c1C(F)(F)F (stereo not drawn) [Cpd 372]
5.70

What does the data say about its pIC50? Entry: Cc1cc(-n2nccn2)c(C#N)cc1NC(=O)c1cnn(-c2cccc3c(=O)[nH]ccc23)c1C(F)(F)F [Cpd 446]
7.49

* * *

Tested on: IL10 secretion by TMD8 ABC-DLBCL cells
assayProtocol: Human IL10 Mesoscale assay (TMD-8)
Assay type: cell-based
experimentalParameters: Homo sapiens, TMD8; TMD-8 cells, 24 h
Doc: threshold 200 nM (exclusive). Items with IC50 beneath it return y; others return n.

molecule: CS(=O)(=O)c1cc(NC(=O)c2cnn(-c3cccc4ncccc34)c2C(F)(F)F)ccc1-n1ccnn1 [Cpd 213]
answerLabel: n

molecule: N#Cc1cc(NC(=O)c2cnn(-c3ccc(F)c4nccn34)c2C(F)(F)F)cnc1-n1nccn1 [Cpd 204]
answerLabel: n

molecule: O=C(Nc1cnc(-n2nccn2)c(Cl)c1)c1cnn(-c2ccc(F)c3ncccc23)c1C(F)(F)F [Cpd 40]
answerLabel: y

molecule: O=C(Nc1cnc(-n2nccn2)c(Cl)c1)c1cnn(-c2cnc(CO)c3ccccc23)c1C(F)(F)F [Cpd 385]
answerLabel: y

molecule: COC(=O)c1cc(NC(=O)c2cnn(-c3cncc4ccccc34)c2C(F)(F)F)cc(Cl)n1 [Cpd 74]
answerLabel: n

Is IC50 strictly under 200 nM for the entry O=C(Nc1cnc(-c2ncco2)c(Cl)c1)c1cnn(-c2cncc3ccccc23)c1C(F)(F)F [Cpd 50] ?
y

In plain terms, does N#Cc1cc(NC(=O)c2cnn(-c3cccc4ncccc34)c2C(F)(F)F)cnc1-n1ncc(CO)n1 [Cpd 177] come in under 200 nM for IC50?
n

Bench note: check whether O=C(Nc1cnc(-n2nccn2)c(Cl)c1)c1cnn(-c2cccc3nc(Cl)ccc23)c1C(F)(F)F [Cpd 221] shows IC50 below 200 nM
n

* * *

Test system: IL6 secretion by OCI-LY3 ABC-DLBCL cells
assayProtocol: Human IL6 Mesoscale assay (OCI-LY3)
Format: cell-based
experimentalParameters: Homo sapiens, 24 h
experimentalReadout: IC50

Below, each entry is followed by its recorded IC50 result.
compound: O=C(Nc1cnc(-n2nccn2)c(Cl)c1)c1cnn(-c2cccc3c2ccc[n+]3[O-])c1C(F)(F)F [Cpd 408]
IC50: 54 nM

compound: COc1ncc(NC(=O)c2cnn(-c3cccc4c(=O)[nH]ccc34)c2C(F)(F)F)cc1Cl [Cpd 345]
IC50: 79 nM

compound: Cc1ccc(-n2ncc(C(=O)Nc3ccnc(C(F)(F)F)c3)c2C(F)(F)F)c2ccnn12 [Cpd 207]
IC50: 525 nM

compound: O=C(Nc1cnc(-n2nccn2)c(Br)c1)c1cnn(-c2cccc3ncccc23)c1C(F)(F)F [Cpd 139]
IC50: 50 nM

compound: Cc1nc(-n2nccn2)c(Cl)cc1NC(=O)c1cnn(-c2c[n+]([O-])cc3sccc23)c1C(F)(F)F [Cpd 410]
IC50: 93 nM

Give the measured IC50 of N#Cc1cc(NC(=O)c2cnn(-c3cnc(N)c4ccccc34)c2C(F)(F)F)ccn1 [Cpd 340] .
295 nM

Return reported IC50; argument: N#Cc1cc(NC(=O)c2cnn(-c3ccnc4cnccc34)c2C(F)(F)F)cnc1-n1nccn1 [Cpd 276]
186 nM

* * *

Form field: IC50 (one value per entry).
Test system: IL6 secretion by OCI-LY3 ABC-DLBCL cells
assayProtocol: Human IL6 Mesoscale assay (OCI-LY3)
Format: cell-based
experimentalParameters: Homo sapiens, 24 h
Provide only the numeric value, understood in nM.

molecule: O=C(Nc1cnc(-n2nccn2)c(Cl)c1)c1cnn(-c2cccc3cnccc23)c1C(F)(F)F
experimentalReadout: IC50
valueMeasured: 100

# get_value(readout= IC50, system= IL6 secretion by OCI-LY3 ABC-DLBCL cells) for O=C(Nc1cnc(-n2nccn2)c(Cl)c1)c1cnn(-c2c[n+]([O-])cc3sccc23)c1C(F)(F)F
98

GET /values?readout=IC50&system=IL6 secretion by OCI-LY3 ABC-DLBCL cells&item= O=C(Nc1cnc(-n2nccn2)c(Cl)c1)c1cnn(-c2cccc3nccn23)c1C(F)(F)F
117

Reported IC50 for IL6 secretion by OCI-LY3 ABC-DLBCL cells, given O=C(Nc1cnc(-n2nnc3cnccc32)c(Cl)c1)c1cnn(-c2cccc3ncccc23)c1C(F)(F)F ?
95

Find IC50 (IL6 secretion by OCI-LY3 ABC-DLBCL cells) for the entry Cc1nc(-n2nccn2)c(Cl)cc1NC(=O)c1cnn(-c2cnc(N)c3ccccc23)c1C(F)(F)F
79

* * *

Each record here notes measured IC50.
System: IL10 secretion by TMD8 ABC-DLBCL cells
assayProtocol: Human IL10 Mesoscale assay (TMD-8)
Type: cell-based
experimentalParameters: Homo sapiens, TMD8; TMD-8 cells, 24 h
Give the number; nM is assumed, so skip it.

Completed entries (count: 5):
compound: Cc1nc2c(-n3ncc(C(=O)Nc4cnc(-n5nccn5)c(C#N)c4)c3C(F)(F)F)cccc2s1
experimentalReadout: IC50
valueMeasured: 141

compound: N#Cc1cc(NC(=O)c2cnn(-c3nccn4cccc34)c2C(F)(F)F)cnc1-n1nccn1
experimentalReadout: IC50
valueMeasured: 112

compound: O=C(Nc1cnc(-n2nccn2)c(Cl)c1)c1cnn(-c2cccc3c(C4CCN4)nccc23)c1C(F)(F)F (stereo not drawn)
experimentalReadout: IC50
valueMeasured: 123

compound: O=C(O)c1cn(-c2ncc(NC(=O)c3cnn(-c4cccc5ncccc45)c3C(F)(F)F)cc2Cl)nn1
experimentalReadout: IC50
valueMeasured: 141

compound: N#Cc1cc(NC(=O)c2cnn(-c3cncc4ccccc34)c2C(F)(F)F)ccc1-n1nccn1
experimentalReadout: IC50
valueMeasured: 74

Could you share which IC50 value was measured for O=C(Nc1cnc(-n2nccn2)c(Cl)c1)c1cnn(-c2cccc3ncsc23)c1C(F)(F)F ?
162

* * *

Endpoint: pIC50. System: full-length MALT1 protein (Strep-MALT1(1-824)-His) (Homo sapiens (Human), UniProt Q9UDY8). Items follow.
Sequence (Q9UDY8 whole entry): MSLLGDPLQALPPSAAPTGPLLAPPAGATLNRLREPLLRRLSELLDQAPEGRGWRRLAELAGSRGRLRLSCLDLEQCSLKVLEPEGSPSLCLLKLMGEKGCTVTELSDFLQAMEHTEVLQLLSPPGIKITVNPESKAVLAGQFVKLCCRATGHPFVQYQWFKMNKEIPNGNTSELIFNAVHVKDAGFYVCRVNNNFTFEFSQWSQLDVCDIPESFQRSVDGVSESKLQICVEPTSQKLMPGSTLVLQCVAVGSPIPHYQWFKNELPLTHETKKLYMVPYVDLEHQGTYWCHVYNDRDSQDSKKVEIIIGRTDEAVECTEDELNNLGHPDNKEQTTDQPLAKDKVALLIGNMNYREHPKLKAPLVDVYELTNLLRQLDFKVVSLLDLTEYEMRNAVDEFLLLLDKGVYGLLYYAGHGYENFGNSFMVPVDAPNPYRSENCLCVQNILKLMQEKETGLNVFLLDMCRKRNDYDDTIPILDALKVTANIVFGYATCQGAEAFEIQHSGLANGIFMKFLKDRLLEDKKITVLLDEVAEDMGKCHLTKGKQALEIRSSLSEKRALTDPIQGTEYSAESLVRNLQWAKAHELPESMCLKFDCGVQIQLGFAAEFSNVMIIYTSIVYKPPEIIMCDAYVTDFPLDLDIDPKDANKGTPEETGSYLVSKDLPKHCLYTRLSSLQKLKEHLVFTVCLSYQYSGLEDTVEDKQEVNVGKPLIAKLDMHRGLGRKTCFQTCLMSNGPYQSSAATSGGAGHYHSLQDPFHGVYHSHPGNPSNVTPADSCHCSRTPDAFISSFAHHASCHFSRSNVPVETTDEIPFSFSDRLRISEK
pIC50 field: float, defined as -log10 of concentration (mol/L).

Sample records with pIC50:
compound: N#Cc1cc(NC(=O)c2cnn(-c3nccc4sccc34)c2C(F)(F)F)cnc1-n1nccn1 [Cpd 90]
valueMeasured: 7.68
--
compound: COc1ncc(NC(=O)c2cnn(-c3cccc4c(=O)[nH]ccc34)c2C(F)(F)F)cc1Cl [Cpd 345]
valueMeasured: 7.03
--
compound: O=C(Nc1cnc(-n2nccn2)c(Cl)c1)c1cnn(-c2cccc3c(C(F)F)nccc23)c1C(F)(F)F [Cpd 400]
valueMeasured: 6.68

Find the recorded pIC50 belonging to N#Cc1cncc(NC(=O)c2cnn(-c3cccc4ccccc34)c2C(F)(F)F)c1 [Cpd 5] and report it.
6.67

* * *

Readings of IC50 for the listed compounds
Tested on: TMD8 cells
assayProtocol: 4-day proliferation assay, TMD8
Type: cell-based
experimentalParameters: Homo sapiens, 96 h, 4 days incubation, CellTiterGLO, read-out: Anti-proliferation: TMD-8 IC50
# output: bare number, implied unit µM

Sample answers from the record:
molecule: O=C(Nc1cnc(-n2nccn2)c(Cl)c1)c1cnn(-c2cncc3ccccc23)c1C(F)(F)F
IC50, µM: 4.9
//
molecule: Cc1cnc2cccc(-n3ncc(C(=O)Nc4cnc(-n5nccn5)c(Cl)c4)c3C(F)(F)F)c2c1
IC50, µM: 10.2
//
molecule: O=C(Nc1cnc(-n2nccn2)c(Cl)c1)c1cnn(-c2cccc3nccn23)c1C(F)(F)F
IC50, µM: 3.63
//
molecule: O=C(Nc1cnc(-n2cccn2)c(Cl)c1)c1cnn(-c2cncc3ccccc23)c1C(F)(F)F
IC50, µM: 9.33

Item under review: N#Cc1cc(NC(=O)c2cnn(-c3cncc4ncccc34)c2C(F)(F)F)cnc1-n1nccn1 . Reported IC50?
4.57

What value of IC50 has been reported for the following compound? N#Cc1cc(NC(=O)c2cnn(-c3cnc(N)c4ccccc34)c2C(F)(F)F)cnc1-n1nccn1
5.25
